assay: binders of probe aFGF10 on microarray, primary screen, stem cell growth factor project, biochemical, small-molecule microarray, fluorescence 635/667 (AID 1071); settings: higher = more signal;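 further: score merges 667 nm spot intensity and signal to noise from triplicate slides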

compound: CO[C@@H]1COC(=O)[C@H](C)NC(=O)CC=C[C@@H](C)[C@H](NS(=O)(=O)c2ccc(C)cc2)COC(=O)CC=C[C@@H]1C
composite z-score: 0.117
--
compound: O=C(O)[C@@H]1Cc2c([nH]c3ccccc23)[C@@H](c2ccccc2)N1
composite z-score: 0.35
--
compound: C=CC[C@]1(C(=O)N2CCCCC2)N=C(c2ccc(OCCCO)cc2)O[C@H]1c1ccccc1N=[N+]=[N-]
composite z-score: 0.984
--
compound: C[C@]1(C(=O)NCCN2CCOCC2)c2ccccc2C(=O)N(Cc2ccccc2)[C@H]1c1ccc(CO)cc1
composite z-score: -0.425
--
compound: C[C@@H]1CC[C@H]2C(=O)N3CCC[C@H]3C(=O)N2[C@H]1c1ccc(Br)cc1
composite z-score: -0.121
--
compound: O=C1C2C=CC(C(O)c3ccccc3)N(n3cnnc3)C2C(=O)N1Cc1ccccc1 (stereo not given)
composite z-score: 0.118
--
compound: O=C(NCc1ccccc1)[C@@]1(CCS(=O)(=O)c2ccccc2)COC(c2ccc(OCCCO)cc2)=N1
composite z-score: 0.382
--
compound: CC1CC/C=C\[C@H]2OC34C=CCN(Cn5nnc6ccccc65)C(=O)[C@H]3N(C(C)CO)C(=O)[C@@H]4C2C(=O)O1 (stereo not given in full)
composite z-score: -0.282
--
compound: COC(=O)C1=CC(c2ccc(CO)cc2)=CC(C2CC2)N(Cc2sc3ccccc3c2Cl)C=C1C(=O)OC (stereo not given)
composite z-score: 0.88
--
compound: C=CCOC(=O)[C@@H]1[C@H]2C(=O)O[C@H](c3ccccc3)[C@H](c3ccccc3)N2[C@H](c2ccc(OCCOC(=O)[C@H]3C[C@H]4C(=O)N[C@@H](CCCCNC(C)=O)C(=O)N4[C@H]3c3ccc(O)cc3)cc2)[C@@]12C(=O)Nc1ccc(I)cc12
composite z-score: 0.536
--
compound: CN1C(=O)C2C=CC(C(O)C3CC=CCC3)N(Nc3ccccc3)C2C1=O (stereo not given)
composite z-score: 0.752
--
compound: C=C(CCCC)C(=O)CC[C@@H](OC(C)=O)c1ccccc1OCCO
composite z-score: -0.34
--
compound: O=C1c2ccccc2[C@](Cc2ccccc2I)(C(=O)NCc2ccccc2)[C@H](c2ccc(CO)cc2)N1Cc1ccccc1C(F)(F)F
composite z-score: -0.787
--
compound: CCOC(=O)C[C@H]1[C@H](OC(=O)c2cc3ccccc3oc2=O)[C@@H](NC(=O)C2CCCCC2)c2cc(OCCCO)ccc2N1C(=O)c1ccc2ccccc2n1
composite z-score: 0.414
--
compound: COC(=O)Cn1c(C(=O)N2CCCC2)cc2c1C[C@H]1CN(C(=O)c3ccccc3)[C@@](Cc3ccccc3)(C(=O)OC)[C@@H]21
composite z-score: 0.381
